This collection of values is drawn from patent US20220313819A1.

targetOrTestSystem: T1, human CD47 (human, UniProt Q08722 19-292)
T1 construct: also called hCD47; CD47 on OV10 hCD47 cells, human RBCs, Jurkat cells and normal human cells
assay: flow cytometry, human RBCs
resultType: pKd
Here pKd is given on a logarithmic scale as minus log10 of the concentration in mol/L.

input: Dear colleague, I am looking for the recorded pKd of the following binder: VLX8hum_08 IgG2 (antibody, V domains shown) VH: EVQLVQSGAEVKKPGESLKISCKGSGYSFTNYYIHWVRQMPGKGLEWMGYIDPLNGDTTYNQKFKGQVTISADKSISTAYLQWSSLKASDTAMYYCARGGKRAMDYWGQGTLVTVSS VL: DIQMTQSPSSLSASVGDRVTITCRASQSISNYLNWYQQKPGKAPKLLIYYTSRLYSGVPSRFSGSGSGTDFTLTISSLQPEDFATYYCQQGNTLPWTFGQGTKVEIKR
output: 9.09
